test: Pharmacokinetic study in male ICR mice; type: in vivo; details: mouse, plasma, po, 5 mg/kg
Experimental Endpoint: MRT inf
Be sure to follow the number with its unit.

Data point: CC(=O)c1cccn1CCc1ccc(C(=O)Nc2ccccc2N)cc1 [Compound 20] ; MRT inf = 1.84 h

====

target: HDAC6 (Homo sapiens, UniProt Q9UBN7); construct: purchased BPS #50006; assay: HDAC inhibition assay (HTRF), HDAC6; format: biochemical; settings: read-out: IC50 ± SD, HDAC6
Sequence (Q9UBN7 whole entry): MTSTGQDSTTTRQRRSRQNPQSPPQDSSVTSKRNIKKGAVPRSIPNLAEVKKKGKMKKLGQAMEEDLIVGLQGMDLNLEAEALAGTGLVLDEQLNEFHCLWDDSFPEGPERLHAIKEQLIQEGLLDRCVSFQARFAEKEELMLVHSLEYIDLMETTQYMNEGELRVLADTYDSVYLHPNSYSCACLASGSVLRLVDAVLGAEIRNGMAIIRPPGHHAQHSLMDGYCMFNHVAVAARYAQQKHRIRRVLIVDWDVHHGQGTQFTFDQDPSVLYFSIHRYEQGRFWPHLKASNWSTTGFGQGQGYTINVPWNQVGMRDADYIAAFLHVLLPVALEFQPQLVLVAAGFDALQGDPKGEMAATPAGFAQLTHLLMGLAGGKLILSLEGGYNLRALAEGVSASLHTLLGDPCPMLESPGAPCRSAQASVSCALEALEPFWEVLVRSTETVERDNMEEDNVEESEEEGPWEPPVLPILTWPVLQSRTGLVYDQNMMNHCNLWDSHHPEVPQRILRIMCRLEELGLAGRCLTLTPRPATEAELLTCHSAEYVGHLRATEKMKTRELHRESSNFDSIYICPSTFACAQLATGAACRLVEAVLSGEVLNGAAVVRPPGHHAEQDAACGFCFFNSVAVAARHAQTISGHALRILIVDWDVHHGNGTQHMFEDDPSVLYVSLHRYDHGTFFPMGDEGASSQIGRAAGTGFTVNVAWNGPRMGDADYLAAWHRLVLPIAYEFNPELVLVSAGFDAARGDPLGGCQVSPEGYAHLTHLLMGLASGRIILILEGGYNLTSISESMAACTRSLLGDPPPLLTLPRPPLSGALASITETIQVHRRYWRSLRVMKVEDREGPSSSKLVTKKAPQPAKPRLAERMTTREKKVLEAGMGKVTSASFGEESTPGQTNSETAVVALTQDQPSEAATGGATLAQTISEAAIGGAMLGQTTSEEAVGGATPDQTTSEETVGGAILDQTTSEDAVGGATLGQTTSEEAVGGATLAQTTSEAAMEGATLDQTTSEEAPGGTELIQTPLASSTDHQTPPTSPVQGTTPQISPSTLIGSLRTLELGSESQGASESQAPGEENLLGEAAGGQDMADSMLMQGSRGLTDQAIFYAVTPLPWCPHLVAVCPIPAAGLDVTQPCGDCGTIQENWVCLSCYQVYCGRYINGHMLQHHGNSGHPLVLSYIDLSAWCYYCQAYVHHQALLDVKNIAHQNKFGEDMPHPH
pIC50: −log10 of the molar value.
For each of the compounds below, state its pIC50.

Data point: CC(=O)c1cccn1Cc1cn(CCc2ccc(C(=O)Nc3ccc(Cl)cc3N)cc2)nn1 [Compound 19c] ; pIC50 = < 5.00

Data point: CC(=O)c1cccn1Cc1cn(CCc2ccc(C(=O)Nc3ccc(F)cc3N)cc2)nn1 [Compound 19b] ; pIC50 = < 5.00

Data point: N#Cc1ccc2c(ccn2CCCCCCC(=O)NO)c1 [Compound 5l] ; pIC50 = 8.64
